target: human GLP-1R (Homo sapiens (Human), UniProt P43220, L260F); assay: CHO GLP-1R Clone C6 - Assay 2 (HTRF cAMP agonist assay, low receptor density); settings: CHO GLP-1R Clone C6 (low receptor density); arithmetic mean, relative to saturating GLP-1 (1 μM)
Sequence (P43220 24-463 L260F): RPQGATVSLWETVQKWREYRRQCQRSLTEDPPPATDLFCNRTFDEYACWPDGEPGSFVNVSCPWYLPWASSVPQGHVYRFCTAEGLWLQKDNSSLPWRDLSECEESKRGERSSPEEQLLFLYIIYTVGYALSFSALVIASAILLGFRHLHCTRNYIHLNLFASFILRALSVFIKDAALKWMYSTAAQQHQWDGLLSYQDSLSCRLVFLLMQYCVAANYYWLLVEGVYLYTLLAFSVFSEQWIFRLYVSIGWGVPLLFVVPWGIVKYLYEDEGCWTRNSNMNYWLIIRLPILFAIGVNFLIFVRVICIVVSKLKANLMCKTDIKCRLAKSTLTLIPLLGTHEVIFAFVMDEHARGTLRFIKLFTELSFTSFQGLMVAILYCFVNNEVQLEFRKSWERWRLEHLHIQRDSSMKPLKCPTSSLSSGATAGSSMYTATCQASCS
Observable: Assay 2 Emax (%)

- Compound: "CC1(c2ccc(C#N)cc2F)Oc2cccc(C3CCN(Cc4nc5ccc(C(=O)O)cc5n4Cc4ncco4)CC3)c2O1.N (stereo not shown)"
  Assay 2 Emax (%): 91
- Compound: "CCn1cncc1Cn1c(CN2CCC(c3cccc4c3O[C@](C)(c3ccc(Cl)cc3F)O4)CC2)nc2ccc(C(=O)O)cc21 (single isomer, unassigned)"
  Assay 2 Emax (%): 87
- Compound: "CC1(c2ccc(Cl)cc2F)Oc2c(F)ccc(C3CCN(Cc4nc5ccc(C(=O)O)cc5n4C[C@@H]4CCO4)CC3)c2O1 (single isomer, unassigned)"
  Assay 2 Emax (%): 93
- Compound: "CC1(c2ccc(C#N)cc2F)Oc2cccc(C3CCN(Cc4nc5ccc(C(=O)O)cc5n4C[C@@H]4CCO4)CC3)c2O1 (single isomer, unassigned)"
  Assay 2 Emax (%): 90

* * *

biological target: human GLP-1R (Homo sapiens, UniProt P43220, G168S); experiment: CHO GLP-1R Clone H6 - Assay 1 (HTRF cAMP agonist assay); format: cell-based; conditions: CHO GLP-1R Clone H6; arithmetic mean, relative to saturating GLP-1 (1 μM)
Sequence (P43220 24-463 G168S limits assumed): as the sequence (P43220 24-463 L260F) above, with G145S, F237L counted along it
Observable: Emax (%)

- Compound: "CC1(c2ccc(Cl)cc2F)Oc2cccc(C3CCN(Cc4nc5ccc(C(=O)O)cc5n4C[C@@H]4CCCO4)CC3)c2O1 (some centres unmarked) [Example 79]"
  Test System: "human GLP-1R (Homo sapiens, UniProt P43220, G168S)"
  Emax, %: 85
- Compound: "COCCn1c(CN2CCC(c3cccc4c3OC(C)(c3ccc(OC)c(F)c3)O4)CC2)nc2ccc(C(=O)O)cc21 (centres unmarked) [Example 30]"
  Test System: "human GLP-1R (Homo sapiens, UniProt P43220, G168S)"
  Emax, %: 86
- Compound: "CC1(c2ccc(Cl)cc2F)Oc2cccc(C3CCN(Cc4nc5ccc(C(=O)O)cc5n4C[C@H]4CCCO4)CC3)c2O1 (some centres unmarked) [Example 64]"
  Test System: "human GLP-1R (Homo sapiens, UniProt P43220, G168S)"
  Emax, %: 94
- Compound: "CN(C)C(=O)Cn1c(CN2CCC(c3cccc4c3OC(C)(c3ccc(Cl)cc3F)O4)CC2)nc2ccc(C(=O)O)cc21 (centres unmarked) [Example 66]"
  Test System: "human GLP-1R (Homo sapiens, UniProt P43220, G168S)"
  Emax, %: 82
- Compound: "COCCn1c(CN2CCC(c3cccc4c3OC(C)(c3cccc(C#N)c3)O4)CC2)nc2ccc(C(=O)O)cc21 (centres unmarked) [Example 87]"
  Test System: "human GLP-1R (Homo sapiens, UniProt P43220, G168S)"
  Emax, %: 89
- Compound: "CC1(c2ccc(Cl)cc2F)Oc2cccc(C3CCN(Cc4nc5ccc(C(=O)O)nc5n4Cc4ncco4)CC3)c2O1 (centres unmarked) [Example 13]"
  Test System: "human GLP-1R (Homo sapiens, UniProt P43220, G168S)"
  Emax, %: 95
- Compound: "COCCn1c(CN2CCC(c3cccc4c3OC(C)(c3cccc(F)c3)O4)CC2)nc2ccc(C(=O)O)cc21 (centres unmarked) [Example 31]"
  Test System: "human GLP-1R (Homo sapiens, UniProt P43220, G168S)"
  Emax, %: 88
- Compound: "COCCn1c(CN2CCC(c3cccc4c3OC(C)(c3ccc(Cl)cn3)O4)CC2)nc2ccc(C(=O)O)cc21 (centres unmarked) [Example 91]"
  Test System: "human GLP-1R (Homo sapiens, UniProt P43220, G168S)"
  Emax, %: 100
- Compound: "CN(C)S(=O)(=O)CCn1c(CN2CCC(c3cccc4c3OC(C)(c3ccc(Cl)cc3F)O4)CC2)nc2ccc(C(=O)O)cc21 (centres unmarked) [Example 47]"
  Test System: "human GLP-1R (Homo sapiens, UniProt P43220, G168S)"
  Emax, %: 75
- Compound: "CC1(c2ccc(Cl)cc2F)Oc2cccc(C3CCN(Cc4nc5ccc(C(=O)O)cc5n4CCCn4cncn4)CC3)c2O1 (centres unmarked) [Example 54]"
  Test System: "human GLP-1R (Homo sapiens, UniProt P43220, G168S)"
  Emax, %: 82
- Compound: "CC1(c2ccc(Cl)cc2F)Oc2cccc(C3CCN(Cc4nc5ccc(C(=O)O)cc5n4Cc4ccccn4)CC3)c2O1 (centres unmarked) [Example 45]"
  Test System: "human GLP-1R (Homo sapiens, UniProt P43220, G168S)"
  Emax, %: 81
- Compound: "CCc1ccc(C2(C)Oc3cccc(C4CCN(Cc5nc6ccc(C(=O)O)cc6n5CCOC)CC4)c3O2)cc1 (centres unmarked) [Example 29]"
  Test System: "human GLP-1R (Homo sapiens, UniProt P43220, G168S)"
  Emax, %: 87
- Compound: "COCCn1c(CN2CCC(c3cccc4c3OC(C)(c3ccc(C#N)cn3)O4)CC2)nc2ccc(C(=O)O)cc21 (centres unmarked) [Example 93]"
  Test System: "human GLP-1R (Homo sapiens, UniProt P43220, G168S)"
  Emax, %: 84
- Compound: "C[C@]1(c2ccc(Cl)cc2F)Oc2cccc(C3CCN(Cc4nc5ccc(C(=O)O)cc5n4C[C@@H]4CCO4)CC3)c2O1 [Example 7]"
  Test System: "human GLP-1R (Homo sapiens, UniProt P43220, G168S)"
  Emax, %: 98

* * *

target: human GLP-1R (Homo sapiens, UniProt P43220, G168S); experiment: CHO GLP-1R Clone H6 - Assay 1 (HTRF cAMP agonist assay); conditions: CHO GLP-1R Clone H6, cAMP HTRF; geometric mean
Observable: EC50 (nM)

Completed entries (count: 5):
- Molecule: "CC1(c2ccc(C#N)cc2F)Oc2cccc(C3CCN(Cc4nc5ccc(C(=O)O)cc5n4C[C@@H]4CCO4)CC3)c2O1 (single isomer, unassigned) [Example 8]"
  EC50 (nM): 0.3
- Molecule: "COCCn1c(CN2CCC(c3cccc4c3OC(C)(c3ccc(OC)cc3)O4)CC2)nc2ccc(C(=O)O)cc21 (stereo not drawn)"
  EC50 (nM): 18
- Molecule: "Cn1c(CN2CCC(c3cccc4c3O[C@@](C)(c3ccc(Cl)cc3F)O4)CC2)nc2ccc(C(=O)O)cc21"
  EC50 (nM): 7
- Molecule: "COCCn1c(CN2CCC(c3cccc4c3OC(c3ccc(C#N)cc3F)O4)CC2)nc2ccc(C(=O)O)cc21 (stereo not drawn)"
  EC50 (nM): 61
- Molecule: "CN(CCn1c(CN2CCC(c3cccc4c3OC(C)(c3ccc(Cl)cc3F)O4)CC2)nc2ccc(C(=O)O)cc21)S(C)(=O)=O (stereo not drawn)"
  EC50 (nM): 6.8

1: CN(C)C(=O)CCn1c(CN2CCC(c3cccc4c3OC(C)(c3ccc(Cl)cc3F)O4)CC2)nc2ccc(C(=O)O)cc21 (stereo not drawn)
2: COCCn1c(CN2CCC(c3cccc4c3OC(C)(c3ccc(Cl)cc3F)O4)CC2)nc2ncc(C(=O)O)cc21 (stereo not drawn)
3: COCCn1c(CN2CCC(c3cccc4c3OC(C)(c3ccccc3)O4)CC2)nc2ccc(C(=O)O)cc21 (stereo not drawn)
Reorder: EC50, max to min. # list labels per requested ordering
1, 3, 2
(1: 74 nM, 3: 47 nM, 2: 1.3 nM)

I: Cn1cnc(CCn2c(CN3CCC(c4cccc5c4OC(C)(c4ccc(Cl)cc4F)O5)CC3)nc3ccc(C(=O)O)cc32)c1 (stereo not drawn)
II: COCCn1c(CN2CCC(c3cccc4c3OC(C)(c3ccc(C#N)cc3)O4)CC2)nc2ccc(C(=O)O)cc21 (stereo not drawn)
III: CN(C)S(=O)(=O)CCn1c(CN2CCC(c3cccc4c3OC(C)(c3ccc(Cl)cc3F)O4)CC2)nc2ccc(C(=O)O)cc21 (stereo not drawn)
IV: O=C(O)c1ccc2nc(CN3CCC(c4cccc5c4O[C@H](c4ccc(Cl)cc4F)O5)CC3)n(C[C@@H]3CCO3)c2c1
Exam item: list the entries in increasing order of EC50. # list labels per requested ordering
II, III, I, IV
(II: 7.8 nM, III: 42 nM, I: 74 nM, IV: 1600 nM)

* * *

target: human GLP-1R (Homo sapiens, UniProt P43220, G168S); assay: CHO GLP-1R Clone H6 - Assay 1 (HTRF cAMP agonist assay); conditions: CHO GLP-1R Clone H6, cAMP HTRF; geometric mean
pEC50: −log10 of the molar value.
Observable: pEC50

a: Cn1cc(CCn2c(CN3CCC(c4cccc5c4OC(C)(c4ccc(Cl)cc4F)O5)CC3)nc3ccc(C(=O)O)cc32)nn1 (stereo not drawn)
b: COCCn1c(CN2CCC(c3cccc4c3OC(C)(c3ccc(OC)cc3F)O4)CC2)nc2ccc(C(=O)O)cc21 (stereo not drawn)
c: COCCn1c(CN2CCN(c3cccc4c3OC(C)(c3ccc(Cl)cc3F)O4)CC2)nc2ccc(C(=O)O)cc21 (stereo not drawn)
d: CC(=O)N(C)CCn1c(CN2CCC(c3cccc4c3OC(C)(c3ccc(Cl)cc3F)O4)CC2)nc2ccc(C(=O)O)cc21 (stereo not drawn)
Please list these compounds in decreasing order of pEC50. # list labels per requested ordering
c, d, b, a
(c: 8.92, d: 8.46, b: 8.18, a: 7.82)
